FYI, the data here is from ChEMBL document CHEMBL1944618.

test system: Candida; test: Antifungal activity against Candida sp. after 48 hrs by M27-A3 CLSI method; format: functional

{"columns": ["compound", "MIC50 (µg/mL)"],
 "data": [
  ["OC(Cn1cncn1)(Cn1cncn1)c1ccc(F)cc1F [FLUCONAZOLE]", 2],
  ["O=C(OC(Cn1ccnc1)c1ccc(C(F)(F)F)cc1)c1cccc(C(F)(F)F)c1 (racemic)", 128],
  ["Cl.O=C(OC(Cn1ccnc1)c1ccc(Cl)cc1)c1cccc(C(F)(F)F)c1 (racemic)", 32],
  ["O=C(OC(Cn1ccnc1)c1ccc(F)cc1)c1cccc(C(F)(F)F)c1 (racemic; 3b)", 8],
  ["O=C(OC(Cn1ccnc1)c1ccccc1)c1cccc(C(F)(F)F)c1 (racemic)", 64],
  ["OC(Cn1ccnc1)c1ccccc1 (racemic)", 64],
  ["O=C(COc1ccccc1)OC(Cn1ccnc1)c1ccc(Cl)cc1 (racemic)", 16],
  ["O=C(COc1ccccc1)OC(Cn1ccnc1)c1ccc(F)cc1 (racemic)", 4],
  ["CC(C)c1ccc(NC(=O)OC(Cn2ccnc2)c2ccc(F)cc2)cc1 (racemic)", 4],
  ["CC(C)c1ccc(NC(=O)OC(Cn2ccnc2)c2ccc(Cl)cc2)cc1 (racemic)", 128],
  ["O=C(OC(Cn1ccnc1)c1ccc(F)cc1)c1ccc(-c2ccccc2)cc1 (racemic)", 1],
  ["OC(Cn1ccnc1)c1ccc(Cl)cc1 (racemic)", 128],
  ["O=C(OC(Cn1ccnc1)c1ccccc1)c1ccc(C(F)(F)F)cc1 (racemic)", 32],
  ["O=C(Nc1cc(Cl)nc(Cl)c1)OC(Cn1ccnc1)c1ccc(Cl)cc1 (racemic)", 128],
  ["CC(C)c1ccc(NC(=O)OC(Cn2ccnc2)c2ccccc2)cc1 (racemic)", 128],
  ["Cl.O=C(OC(Cn1ccnc1)c1ccc(F)cc1)c1cccc(C(F)(F)F)c1 (racemic; 4b)", 16],
  ["O=C(OC(Cn1ccnc1)c1ccc(Cl)cc1)c1ccc(-c2ccccc2)cc1 (racemic)", 1],
  ["OC(Cn1ccnc1)c1ccc(F)cc1 (racemic)", 128],
  ["O=C(OC(Cn1ccnc1)c1ccccc1)c1ccc(-c2ccccc2)cc1 (racemic)", 0.5]
]}

---

tested on: Candida parapsilosis; assay: Antifungal activity against Candida parapsilosis ATCC 22019 after 48 hrs by M27-A3 CLSI method; type: functional; settings: Lodderomyces parapsilosis, ATCC 22019, 48 h

{"columns": ["compound", "modifierSign", "MIC / µg/mL"],
 "data": [
  ["O=C(Nc1cc(Cl)nc(Cl)c1)OC(Cn1ccnc1)c1ccc(Cl)cc1 (racemic)", ">", 64],
  ["OC(Cn1cncn1)(Cn1cncn1)c1ccc(F)cc1F [FLUCONAZOLE]", "=", 2],
  ["Cl.O=C(OC(Cn1ccnc1)c1ccc(Cl)cc1)c1cccc(C(F)(F)F)c1 (racemic)", ">", 64],
  ["O=C(COc1ccccc1)OC(Cn1ccnc1)c1ccc(Cl)cc1 (racemic)", "=", 32],
  ["CC(C)c1ccc(NC(=O)OC(Cn2ccnc2)c2ccc(Cl)cc2)cc1 (racemic)", ">", 64],
  ["O=C(OC(Cn1ccnc1)c1ccc(Cl)cc1)c1ccc(-c2ccccc2)cc1 (racemic)", "=", 1],
  ["O=C(OC(Cn1ccnc1)c1ccccc1)c1ccc(C(F)(F)F)cc1 (racemic)", "=", 64],
  ["O=C(OC(Cn1ccnc1)c1ccccc1)c1ccc(-c2ccccc2)cc1 (racemic)", "=", 2],
  ["OC(Cn1ccnc1)c1ccc(Cl)cc1 (racemic)", ">", 64],
  ["O=C(OC(Cn1ccnc1)c1ccccc1)c1cccc(C(F)(F)F)c1 (racemic)", "=", 64],
  ["CC(C)c1ccc(NC(=O)OC(Cn2ccnc2)c2ccccc2)cc1 (racemic)", "=", 64],
  ["O=C(OC(Cn1ccnc1)c1ccc(F)cc1)c1cccc(C(F)(F)F)c1 (racemic; 3b)", ">", 8],
  ["O=C(COc1ccccc1)OC(Cn1ccnc1)c1ccc(F)cc1 (racemic)", ">", 64],
  ["CC(C)c1ccc(NC(=O)OC(Cn2ccnc2)c2ccc(F)cc2)cc1 (racemic)", ">", 64],
  ["OC(Cn1ccnc1)c1ccc(F)cc1 (racemic)", ">", 64],
  ["O=C(OC(Cn1ccnc1)c1ccc(F)cc1)c1ccc(-c2ccccc2)cc1 (racemic)", "=", 2],
  ["Cl.O=C(OC(Cn1ccnc1)c1ccc(F)cc1)c1cccc(C(F)(F)F)c1 (racemic; 4b)", "=", 32],
  ["OC(Cn1ccnc1)c1ccccc1 (racemic)", "≥", 64],
  ["O=C(OC(Cn1ccnc1)c1ccc(C(F)(F)F)cc1)c1cccc(C(F)(F)F)c1 (racemic)", "=", 64]
]}

---

# key: entry, value: CC50 at 48 h
assay: Cytotoxicity against human U937 cells after 48 hrs by MTT assay; format: cell-based, U-937
recordedMetric: CC50 at 48 h (µg/mL)

{"columns": ["compound", "recordedMetric", "unitName", "modifierSign", "readoutValue"],
 "data": [
  ["O=C(OC(Cn1ccnc1)c1ccccc1)c1ccc(-c2ccccc2)cc1 (racemic)", "CC50 at 48 h", "µg/mL", ">", 128],
  ["O=C(OC(Cn1ccnc1)c1ccc(Cl)cc1)c1ccc(-c2ccccc2)cc1 (racemic)", "CC50 at 48 h", "µg/mL", "=", 88.3],
  ["O=C(OC(Cn1ccnc1)c1ccc(F)cc1)c1ccc(-c2ccccc2)cc1 (racemic)", "CC50 at 48 h", "µg/mL", "=", 41.5]
]}

---

system: Candida albicans; test: Antifungal activity against Candida albicans ATCC 10231 after 48 hrs by M27-A3 CLSI method; format: functional; conditions: ATCC 10231, 48 h
recordedMetric: MIC (µg/mL)

{"columns": ["compound", "studySystem", "modifierSign", "readoutValue"],
 "data": [
  ["O=C(Nc1cc(Cl)nc(Cl)c1)OC(Cn1ccnc1)c1ccc(Cl)cc1 (racemic)", "Candida albicans", ">", 64],
  ["Cl.O=C(OC(Cn1ccnc1)c1ccc(F)cc1)c1cccc(C(F)(F)F)c1 (racemic; 4b)", "Candida albicans", "=", 8],
  ["O=C(OC(Cn1ccnc1)c1ccc(C(F)(F)F)cc1)c1cccc(C(F)(F)F)c1 (racemic)", "Candida albicans", "=", 64],
  ["Cl.O=C(OC(Cn1ccnc1)c1ccc(Cl)cc1)c1cccc(C(F)(F)F)c1 (racemic)", "Candida albicans", "=", 4]
]}

---

tested on: Candida parapsilosis; assay: Antifungal activity against Candida parapsilosis DSM 11224 after 48 hrs by M27-A3 CLSI method; type: functional; details: Lodderomyces parapsilosis, DSM 11224, 48 h; read-out: MIC
# key: entry, value: MIC

{"columns": ["molecule", "MIC"],
 "data": [
  ["Cl.O=C(OC(Cn1ccnc1)c1ccc(Cl)cc1)c1cccc(C(F)(F)F)c1 (racemic)", "8 µg/mL"],
  ["CC(C)c1ccc(NC(=O)OC(Cn2ccnc2)c2ccccc2)cc1 (racemic)", "> 64 µg/mL"],
  ["O=C(COc1ccccc1)OC(Cn1ccnc1)c1ccc(F)cc1 (racemic)", "4 µg/mL"],
  ["O=C(Nc1cc(Cl)nc(Cl)c1)OC(Cn1ccnc1)c1ccc(Cl)cc1 (racemic)", "> 64 µg/mL"],
  ["O=C(OC(Cn1ccnc1)c1ccccc1)c1ccc(C(F)(F)F)cc1 (racemic)", "32 µg/mL"],
  ["O=C(OC(Cn1ccnc1)c1ccc(C(F)(F)F)cc1)c1cccc(C(F)(F)F)c1 (racemic)", "> 64 µg/mL"],
  ["CC(C)c1ccc(NC(=O)OC(Cn2ccnc2)c2ccc(F)cc2)cc1 (racemic)", "16 µg/mL"],
  ["O=C(COc1ccccc1)OC(Cn1ccnc1)c1ccc(Cl)cc1 (racemic)", "8 µg/mL"],
  ["O=C(OC(Cn1ccnc1)c1ccccc1)c1cccc(C(F)(F)F)c1 (racemic)", "8 µg/mL"],
  ["OC(Cn1cncn1)(Cn1cncn1)c1ccc(F)cc1F [FLUCONAZOLE]", "1 µg/mL"],
  ["CC(C)c1ccc(NC(=O)OC(Cn2ccnc2)c2ccc(Cl)cc2)cc1 (racemic)", "> 64 µg/mL"]
]}

---

# key: entry, value: MIC
system: Candida tropicalis; assay: Antifungal activity against Candida tropicalis DSM 11953 after 48 hrs by M27-A3 CLSI method; type: functional; conditions: DSM 11953, 48 h

{"columns": ["molecule", "unitName", "modifierSign", "MIC"],
 "data": [
  ["Cl.O=C(OC(Cn1ccnc1)c1ccc(Cl)cc1)c1cccc(C(F)(F)F)c1 (racemic)", "µg/mL", "=", 32],
  ["CC(C)c1ccc(NC(=O)OC(Cn2ccnc2)c2ccccc2)cc1 (racemic)", "µg/mL", ">", 64],
  ["O=C(COc1ccccc1)OC(Cn1ccnc1)c1ccc(Cl)cc1 (racemic)", "µg/mL", ">", 64],
  ["O=C(OC(Cn1ccnc1)c1ccc(F)cc1)c1cccc(C(F)(F)F)c1 (racemic; 3b)", "µg/mL", "=", 4],
  ["O=C(OC(Cn1ccnc1)c1ccccc1)c1ccc(-c2ccccc2)cc1 (racemic)", "µg/mL", "=", 0.25]
]}
